- assay system: C-X-C chemokine receptor type 3 (Homo sapiens)
- Sequence (P49682 whole entry): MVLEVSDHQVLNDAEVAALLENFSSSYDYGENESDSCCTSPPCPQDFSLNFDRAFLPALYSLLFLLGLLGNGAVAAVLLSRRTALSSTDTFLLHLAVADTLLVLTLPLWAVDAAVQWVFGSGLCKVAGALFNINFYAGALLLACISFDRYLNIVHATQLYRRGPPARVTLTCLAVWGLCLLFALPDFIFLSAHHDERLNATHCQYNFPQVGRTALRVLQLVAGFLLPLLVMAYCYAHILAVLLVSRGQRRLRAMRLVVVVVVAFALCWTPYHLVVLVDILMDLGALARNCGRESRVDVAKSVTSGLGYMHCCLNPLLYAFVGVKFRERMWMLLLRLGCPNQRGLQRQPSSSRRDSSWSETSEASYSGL
- measurement notes: Displacement of [125I]-CXCL10 from human recombinant CXCR3 transfected in Flp-In-CHO cell membranes after 60 mins by gamma counting method

{"compound": "COc1cc(CN(CCN)C(C)c2ccc3c(c2)CCO3)ccc1OCCN1C(=O)CCC1=O (configuration not stated)", "IC50, nM": 2200}
{"compound": "COc1cc(CN(C)[C@H](C)c2ccc3c(c2)CCO3)ccc1OCCN1C(=O)CCC1=O", "IC50, nM": 790}
{"compound": "COc1cc(CN(CCO)C(C)c2ccc3c(c2)CCO3)ccc1OCCN1C(=O)CCC1=O (configuration not stated)", "IC50, nM": 82}
{"compound": "COc1cc(CN(C[C@H]2CC[C@H](C(=O)O)CC2)[C@H]2CCc3cc(Cl)ccc32)ccc1CCCN1C(=O)CCC1=O", "IC50, nM": 1000}
{"compound": "COc1cc(CNC(C)(C)c2ccc3c(c2)CCO3)ccc1OCCN1C(=O)CCC1=O", "IC50, nM": 780}
{"compound": "COc1cc(CN(C)[C@@H](C)c2ccc3c(c2)CCO3)ccc1OCCN1C(=O)CCC1=O", "IC50, nM": 154}
{"compound": "COc1cc(CNCc2ccc3c(c2)CCO3)ccc1OCCN1C(=O)CCC1=O", "IC50, nM": 290}
{"compound": "COc1cc(CN(Cc2ccncc2)C(C)c2ccc3c(c2)CCO3)ccc1OCCN1C(=O)CCC1=O (configuration not stated)", "IC50, nM": 130}
{"compound": "COc1cc(CN(CCCC(=O)O)C(c2ccc3c(c2)CCO3)C2CCCC2)ccc1OCCN1C(=O)CCC1=O (configuration not stated)", "IC50, nM": 382}
{"compound": "COc1cc(CN(Cc2ccc(/C=C/C(=O)O)cc2)C(C)c2ccc3c(c2)CCO3)ccc1OCCN1C(=O)CCC1=O (configuration not stated)", "IC50, nM": 138}
{"compound": "COc1cc(CN(C[C@H]2CC[C@H](C(=O)O)CC2)C2CCc3cc(Cl)ccc32)ccc1OCCN1C(=O)CCC1=O (some centres not stated)", "IC50, nM": 24}
{"compound": "COc1cc(CN(Cc2ccc(C(=O)O)cc2)C(c2ccc3c(c2)CCO3)C2CCCC2)ccc1OCCN1C(=O)CCC1=O (configuration not stated)", "IC50, nM": 4200}
{"compound": "COc1cc(CN(CCCC(=O)O)C(C)c2ccc3c(c2)CCO3)ccc1OCCN1C(=O)CCC1=O (configuration not stated)", "IC50, nM": 210}
{"compound": "COc1cc(CN(Cc2ccc3c(c2)CCO3)C(C)c2ccc3c(c2)CCO3)ccc1OCCN1C(=O)CCC1=O (configuration not stated)", "IC50, nM": 340}
{"compound": "COc1cc(CN(CC(C)=O)C(C)c2ccc3c(c2)CCO3)ccc1OCCN1C(=O)CCC1=O (configuration not stated)", "IC50, nM": 202}
{"compound": "CCC(c1ccc2c(c1)CCO2)N(Cc1ccc(C(=O)O)cc1)Cc1ccc(OCCN2C(=O)CCC2=O)c(OC)c1 (configuration not stated)", "IC50, nM": 160}
{"compound": "COc1cc(CNC(CC(C)C)c2ccc3c(c2)CCO3)ccc1OCCN1C(=O)CCC1=O (configuration not stated)", "IC50, nM": 1800}

Reference for the values: ChEMBL document CHEMBL3864163
